// provenance: patent US11723929B2

# test.details: Exp. logP (Table 3)
# Assay type: physicochemical
attribute.measured: logP

[[record]]
test_smiles = "O=C(Nc1ccc(C(F)(F)F)cc1)NC1CCN(C(=O)C2(C(F)(F)F)CC2)CC1"
attribute_measured = "logP"
recorded_measurement = 4.63

